Cited source: PubChem BioAssay AID1851

# TARGET OR TEST SYSTEM: Cytochrome P450 1A2 (Homo sapiens) (UniProt P05177)
# Sequence (P05177 whole entry, looked up): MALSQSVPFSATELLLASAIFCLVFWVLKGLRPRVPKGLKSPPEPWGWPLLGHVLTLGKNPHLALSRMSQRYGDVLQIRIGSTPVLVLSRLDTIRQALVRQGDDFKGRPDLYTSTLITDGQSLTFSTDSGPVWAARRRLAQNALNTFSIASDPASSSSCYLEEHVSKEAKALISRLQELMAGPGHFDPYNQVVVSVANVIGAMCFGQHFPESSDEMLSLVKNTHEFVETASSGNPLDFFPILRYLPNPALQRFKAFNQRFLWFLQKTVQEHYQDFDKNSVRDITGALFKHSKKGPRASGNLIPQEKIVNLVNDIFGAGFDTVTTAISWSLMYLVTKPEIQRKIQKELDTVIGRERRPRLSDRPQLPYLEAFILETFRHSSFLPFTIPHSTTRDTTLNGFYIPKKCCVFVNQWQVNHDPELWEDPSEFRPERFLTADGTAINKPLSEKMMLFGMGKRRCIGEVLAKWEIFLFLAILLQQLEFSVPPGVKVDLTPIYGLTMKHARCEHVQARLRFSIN
# EXPERIMENT DESCRIPTION: Cytochrome panel assay with activity outcomes
# SETUP CONDITIONS: recombinant CYP, pro-luciferin dealkylation, luminescence, p450-cyp1a2; series mostly up to 57.1 µM
Screen size: about 16,000 compounds; about 5,700 (36%) were called active. Not shown: some 24% with an inconclusive outcome. The call rests on the fitted dose curve; in most records, active means well fitted curve in the direction sought with a large enough effect; inconclusive means small, poorly fitted or top-dose-only effect, or effect the other way; inactive means no such curve, though single readings can be large or run the other way. Some of the results follow.
Can you answer with just one of these options? Yes = active, No = inactive

Solved entries:
>  <COMPOUND>
Cc1cc(NC(=O)COC(=O)c2ccc(NS(=O)(=O)c3ccc(C)c(C)c3)cc2)no1

>  <TARGET OR TEST SYSTEM>
Cytochrome P450 1A2 (Homo sapiens) (UniProt P05177)

>  <CLASS LABEL>
No

$$$$
>  <COMPOUND>
C=CCOc1ccc(CNC(C)(C)CO)cc1OC

>  <TARGET OR TEST SYSTEM>
Cytochrome P450 1A2 (Homo sapiens) (UniProt P05177)

>  <CLASS LABEL>
No

$$$$
>  <COMPOUND>
O=C(c1ccccc1)N(Cc1ccco1)C1CCS(=O)(=O)C1 (centres undefined)

>  <TARGET OR TEST SYSTEM>
Cytochrome P450 1A2 (Homo sapiens) (UniProt P05177)

>  <CLASS LABEL>
No

$$$$
>  <COMPOUND>
CCCOc1ccc(CSC(CC(=O)O)C(=O)O)cc1 (centres undefined)

>  <TARGET OR TEST SYSTEM>
Cytochrome P450 1A2 (Homo sapiens) (UniProt P05177)

>  <CLASS LABEL>
No

$$$$

Prompt line: I would be grateful if you could indicate the recorded call for "C[N+](C)(C)CC(=O)O" .
Response line: No

Prompt line: "CCc1cccc(N(C)C(N)=Nc2cccc3ccccc23)c1" , same question.
Response line: No
